Origin of values: paper PMC12136788

Each entry below carries its reported binding signal.
Test System: T1, UNK ZnF1-6 (called full-length) (human, UniProt Q9C0B0 30-357)
T1 sequence: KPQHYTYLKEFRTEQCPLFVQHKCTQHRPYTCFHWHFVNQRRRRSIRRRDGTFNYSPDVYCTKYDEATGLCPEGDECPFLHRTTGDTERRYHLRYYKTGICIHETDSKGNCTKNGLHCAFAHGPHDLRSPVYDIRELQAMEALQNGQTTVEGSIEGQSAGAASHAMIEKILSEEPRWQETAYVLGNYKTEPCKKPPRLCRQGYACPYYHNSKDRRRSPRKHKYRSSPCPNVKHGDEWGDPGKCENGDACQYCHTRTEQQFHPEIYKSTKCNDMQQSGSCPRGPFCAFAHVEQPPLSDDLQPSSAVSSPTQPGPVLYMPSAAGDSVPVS
Assay Notes: nsRBNS (natural sequence RNA bind-n-seq); RBNS binding buffer (assumed for nsRBNS): 25 mM Tris pH 7.5, 150 mM KCl, 3 mM MgCl2, 0.01% Triton X-100, 500 ug/ml BSA, 20 U/ml SUPERase-In, 4 C; UNK is unkempt and MSI1 is Musashi-1; names of the RNAs are library labels; protein concentration not given here; high values mean tight binding
In all, about 5,800 sequences were measured (“enrichment r”: median about 0.68, highest 2% from about 11 on). What follows is part of a selection rich in the highest values, with near analogues and random picks from the rest.
Field: numeric (enrichment R). Do not append units.

Please review the following examples before continuing.
Quick check: binding signal of chr1:178479239:178479534:-|three_prime_utr|ENSG00000188585|control|control|control (ssRNA) RNA: GGGAGUUCUACAGUCCGACGAUCCAGUUUCUGUUUCAUGCAAUCUUCUCUGGAUUUUGAGUAAAUUUUAAUUUUUUAAUCCCUAGUAGAACAAGAUUAGGAAGAACUCGACAUGUGCCAAAAAGCACAGACCUACAACUAACACAACAGAGGAUUGAGCAUCA ?
0.449

// same read-out, input: chr7:38725943:38726055:-|3pUTR|ENSG00000006715|unk|total|mutant (ssRNA) RNA: GGGAGUUCUACAGUCCGACGAUCGAAAUUUUGGGGUCCACCGUGAAUAUUUUGUUAUUUAUUUGUUUGGCUCAUUCUUUAUACCGUAAUGGAAACAUAAGUCCCGGAGUCCGAAAUGAAUUUUUCCGACCUCCGUAAAACCAUCAACAGAGGAUUGAGCAUCA
0.419

Next:
Returns the measured binding signal for the input binder. Input: chr14:106116634:106116941:-|CDS|ENSG00000211941|control|control|control (ssRNA) RNA: GGGAGUUCUACAGUCCGACGAUCUGGAUCCGCCAGGCUCCAGGGAAGGGGCUGGAGUGGGUUUCAUACAUUAGUAGUAGUAGUAGUUACACAAACUACGCAGACUCUGUGAAGGGCCGAUUCACCAUCUCCAGAGACAACGCCCAACAGAGGAUUGAGCAUCA
1.12
